# Test system: CCRIS mutagenicity, Ames/micronucleus/aberration tests
# protocolDetails: CCRIS mutagenicity studies
# conditionParameters: Test System: AMES SALMONELLA TYPHIMURIUM; Strain/Indicator: TA100; Metabolic Activation: NONE; Method: STANDARD PLATE
# Excerpt: The CCRIS database contains chemical records with carcinogenicity, mutagenicity, tumor promotion, and tumor inhibition test results. It was developed by the National Cancer Institute (NCI). Data are derived from studies cited in primary journals, current awareness tools, NCI reports, and other sources. Test results have been reviewed by experts in carcinogenesis and mutagenesis. CCRIS provides historical information from the years 1985 - 2011. It is no longer updated. […]
Calls of active or inactive are those of the source. How the calls were made is not given here.
Returns: one label drawn from 1 (yes) for active, 0 (no) for inactive

[[record]]
compound = "Cc1nc2c(c3[nH]c4ccccc4c13)C(=O)C(N1CCN(C)CC1)=CC2=O"
assignedlabel = "1 (yes)"

[[record]]
compound = "O=[N+]([O-])O"
assignedlabel = "0 (no)"

[[record]]
compound = "CCC(CCC(C)=O)COC(=O)c1ccccc1C(=O)O (configuration not stated)"
assignedlabel = "0 (no)"


Kindly provide the recorded test outcome for the following compound: "CCCCCON=O"
1 (yes)

Call for entry "CN(C)c1ccc([C@H]2C[C@]3(C)[C@@H](CC[C@]3(O)CCCO)[C@@H]3CCC4=CC(=O)CCC4=C32)cc1" :
0 (no)

How was "COc1cc2c(c3oc(=O)c4c(c13)CC[C@@H]4O)[C@@H]1C=CO[C@@H]1O2" classified in this test?
0 (no)

For "C=C(C)c1ccc(C)c2ccc(CO)c-2c1" , which call appears in the assay record?
0 (no)

Entry "CCN(CC)c1ccc2nc3ccc(=[N+](CC)CC)cc-3oc2c1" : call = ?
0 (no)

Entry "O=C(O)c1ccccc1" : call = ?
0 (no)

Hi, do you know how "CCCCOc1cc(N=Nc2ccc(NCCO)cc2NCCO)ccc1N=Nc1c(S(=O)(=O)O)cc2ccc(N)cc2c1O" came out in this test?
0 (no)

Which outcome was assigned to OC1c2cccnc2C2OC2C1O (configuration not stated) in this test?
0 (no)

Lab log entry: "O=S(=O)(O)c1ccc(N=Nc2c(O)ccc3ccccc23)cc1" — outcome as called in the assay?
0 (no)

----------
# System: CCRIS mutagenicity, Ames/micronucleus/aberration tests
# protocolDetails: CCRIS mutagenicity studies
# conditionParameters: Test System: AMES SALMONELLA TYPHIMURIUM; Strain/Indicator: TA1535; Metabolic Activation: RAT LIVER S-9, PHENOBARBITAL AND BETA-NAPHTHOFLAVONE; Method: PREINCUBATION
Activity calls are given as the source filed them. How the calls were made is not given here.
// allowed return values: active, inactive

The examples below pair each entry with its known result.
[[record]]
compound = "CC(C)(c1ccccc1)c1ccc(O)cc1"
assignedlabel = "inactive"

[[record]]
compound = "CCCCC(CC)COC(=O)c1ccccc1C(=O)OCC(CC)CCCC (stereo not given)"
assignedlabel = "inactive"

[[record]]
compound = "O=C1CCCO1"
assignedlabel = "inactive"

[[record]]
compound = "Cc1cccc(O)c1C"
assignedlabel = "inactive"

[[record]]
compound = "CC(C)(C#N)N=NC(C)(C)C#N"
assignedlabel = "inactive"


API: the following record is the query input.
For "CCC[N+](=O)[O-]" , what call appears in the results of this test?
inactive
